Cited source: the supplement of paper PMC12533247

- System: HSV-1 K26-GFP infected primary human skin cells
- assay-text: % change of HSV-1 GFP signal vs untreated infected cells; higher = less antiviral inhibition
- stated-conditions: 20 µM; cell type: primary keratinocytes; donor: 3; time (h post infection): 20
So I've got a bunch of molecules here, and I need their % change of HSV-1 GFP signal values.
Give the quantity in %, number only.

State its % change of HSV-1 GFP signal: CC(C)c1cnn2c(NCc3ccccc3-n3cccn3)nc(OC3CCCNC3)nc12 (stereo unspecified)
-99.9

State its % change of HSV-1 GFP signal: O=C(Nc1ccc([N+](=O)[O-])cc1Cl)c1cc(Cl)ccc1O [Niclosamide]
-62.7

State its % change of HSV-1 GFP signal: CC(=O)O[C@H]1C[C@H](O[C@H]2[C@@H](O)C[C@H](O[C@H]3[C@@H](O)C[C@H](O[C@H]4CC[C@@]5(C)[C@H](CC[C@@H]6[C@@H]5C[C@@H](O)[C@]5(C)[C@@H](C7=CC(=O)OC7)CC[C@]65O)C4)O[C@@H]3C)O[C@@H]2C)O[C@H](C)[C@H]1O[C@@H]1O[C@H](CO)[C@@H](O)[C@H](O)[C@H]1O [Lanatoside C]
-99.9

State its % change of HSV-1 GFP signal: C=CC(=O)N1CC/C(=C\c2ccc(F)c([N+](=O)[O-])c2)C(=O)/C(=C/c2ccc(F)c([N+](=O)[O-])c2)C1
-92.7

State its % change of HSV-1 GFP signal: CC1(C)CC(=O)c2c(C(F)(F)F)nn(-c3ccc(C(N)=O)c(N[C@H]4CC[C@H](O)CC4)c3)c2C1
-99.7

State its % change of HSV-1 GFP signal: Cc1nc(N(C)C(=O)Cc2ccc(-c3ccccn3)cc2)sc1S(N)(=O)=O
-98.8

---

- Test system: primary dermal fibroblasts
- assay-text: % change in live cells vs DMSO control; higher = less cytotoxic
- stated-conditions: 0.740741 µM; donor: 4; time (h post treatment): 48
So I've got a bunch of compounds here, and I need their % change in live cells values.
# number then unit; no other words

State its % change in live cells: CC1(C)CC(=O)c2c(C(F)(F)F)nn(-c3ccc(C(N)=O)c(N[C@H]4CC[C@H](O)CC4)c3)c2C1
0.333%

State its % change in live cells: O=C(/C=C\n1cnc(-c2cc(C(F)(F)F)cc(C(F)(F)F)c2)n1)NNc1ccccn1 [Verdinexor]
-14%

State its % change in live cells: COc1ccc(-c2nc(N3CCOCC3)c3sc(CN(C)c4ncc(C(=O)NO)cn4)cc3n2)cn1 [Fimepinostat]
-44%

State its % change in live cells: Cc1cccc(C)c1N(CC(=O)Nc1ccc(-c2ncon2)cc1)C(=O)C1CCS(=O)(=O)CC1
2.67%

State its % change in live cells: CC(C)c1cnn2c(NCc3ccccc3-n3cccn3)nc(OC3CCCNC3)nc12 (stereo not drawn)
-5.33%

State its % change in live cells: Cc1nc(N(C)C(=O)Cc2ccc(-c3ccccn3)cc2)sc1S(N)(=O)=O
-6.33%

State its % change in live cells: CC(=O)O[C@H]1C[C@H](O[C@H]2[C@@H](O)C[C@H](O[C@H]3[C@@H](O)C[C@H](O[C@H]4CC[C@@]5(C)[C@H](CC[C@@H]6[C@@H]5C[C@@H](O)[C@]5(C)[C@@H](C7=CC(=O)OC7)CC[C@]65O)C4)O[C@@H]3C)O[C@@H]2C)O[C@H](C)[C@H]1O[C@@H]1O[C@H](CO)[C@@H](O)[C@H](O)[C@H]1O [Lanatoside C]
-28.3%

State its % change in live cells: C=CC(=O)N1CC/C(=C\c2ccc(F)c([N+](=O)[O-])c2)C(=O)/C(=C/c2ccc(F)c([N+](=O)[O-])c2)C1
-1.33%

---

- Test system: primary keratinocytes
- assay-text: % change in live cells vs DMSO control; higher = less cytotoxic
- stated-conditions: 0.246914 µM; donor: 4; time (h post treatment): 20
test-readout: % change in live cells (%)
Give the quantity in %, number only.

State its % change in live cells: O=C(Nc1ccc([N+](=O)[O-])cc1Cl)c1cc(Cl)ccc1O [Niclosamide]
-20.7

State its % change in live cells: CC(=O)O[C@H]1C[C@H](O[C@H]2[C@@H](O)C[C@H](O[C@H]3[C@@H](O)C[C@H](O[C@H]4CC[C@@]5(C)[C@H](CC[C@@H]6[C@@H]5C[C@@H](O)[C@]5(C)[C@@H](C7=CC(=O)OC7)CC[C@]65O)C4)O[C@@H]3C)O[C@@H]2C)O[C@H](C)[C@H]1O[C@@H]1O[C@H](CO)[C@@H](O)[C@H](O)[C@H]1O [Lanatoside C]
-39.7

State its % change in live cells: Cc1nc(N(C)C(=O)Cc2ccc(-c3ccccn3)cc2)sc1S(N)(=O)=O [Pritelivir]
-18.3

State its % change in live cells: Cc1cccc(C)c1N(CC(=O)Nc1ccc(-c2ncon2)cc1)C(=O)C1CCS(=O)(=O)CC1 [Amenamevir]
-12.7
